# study_system: wild-type human cardiac sodium channel, hNav1.5 (Homo sapiens)
# Sequence (Q14524 whole entry): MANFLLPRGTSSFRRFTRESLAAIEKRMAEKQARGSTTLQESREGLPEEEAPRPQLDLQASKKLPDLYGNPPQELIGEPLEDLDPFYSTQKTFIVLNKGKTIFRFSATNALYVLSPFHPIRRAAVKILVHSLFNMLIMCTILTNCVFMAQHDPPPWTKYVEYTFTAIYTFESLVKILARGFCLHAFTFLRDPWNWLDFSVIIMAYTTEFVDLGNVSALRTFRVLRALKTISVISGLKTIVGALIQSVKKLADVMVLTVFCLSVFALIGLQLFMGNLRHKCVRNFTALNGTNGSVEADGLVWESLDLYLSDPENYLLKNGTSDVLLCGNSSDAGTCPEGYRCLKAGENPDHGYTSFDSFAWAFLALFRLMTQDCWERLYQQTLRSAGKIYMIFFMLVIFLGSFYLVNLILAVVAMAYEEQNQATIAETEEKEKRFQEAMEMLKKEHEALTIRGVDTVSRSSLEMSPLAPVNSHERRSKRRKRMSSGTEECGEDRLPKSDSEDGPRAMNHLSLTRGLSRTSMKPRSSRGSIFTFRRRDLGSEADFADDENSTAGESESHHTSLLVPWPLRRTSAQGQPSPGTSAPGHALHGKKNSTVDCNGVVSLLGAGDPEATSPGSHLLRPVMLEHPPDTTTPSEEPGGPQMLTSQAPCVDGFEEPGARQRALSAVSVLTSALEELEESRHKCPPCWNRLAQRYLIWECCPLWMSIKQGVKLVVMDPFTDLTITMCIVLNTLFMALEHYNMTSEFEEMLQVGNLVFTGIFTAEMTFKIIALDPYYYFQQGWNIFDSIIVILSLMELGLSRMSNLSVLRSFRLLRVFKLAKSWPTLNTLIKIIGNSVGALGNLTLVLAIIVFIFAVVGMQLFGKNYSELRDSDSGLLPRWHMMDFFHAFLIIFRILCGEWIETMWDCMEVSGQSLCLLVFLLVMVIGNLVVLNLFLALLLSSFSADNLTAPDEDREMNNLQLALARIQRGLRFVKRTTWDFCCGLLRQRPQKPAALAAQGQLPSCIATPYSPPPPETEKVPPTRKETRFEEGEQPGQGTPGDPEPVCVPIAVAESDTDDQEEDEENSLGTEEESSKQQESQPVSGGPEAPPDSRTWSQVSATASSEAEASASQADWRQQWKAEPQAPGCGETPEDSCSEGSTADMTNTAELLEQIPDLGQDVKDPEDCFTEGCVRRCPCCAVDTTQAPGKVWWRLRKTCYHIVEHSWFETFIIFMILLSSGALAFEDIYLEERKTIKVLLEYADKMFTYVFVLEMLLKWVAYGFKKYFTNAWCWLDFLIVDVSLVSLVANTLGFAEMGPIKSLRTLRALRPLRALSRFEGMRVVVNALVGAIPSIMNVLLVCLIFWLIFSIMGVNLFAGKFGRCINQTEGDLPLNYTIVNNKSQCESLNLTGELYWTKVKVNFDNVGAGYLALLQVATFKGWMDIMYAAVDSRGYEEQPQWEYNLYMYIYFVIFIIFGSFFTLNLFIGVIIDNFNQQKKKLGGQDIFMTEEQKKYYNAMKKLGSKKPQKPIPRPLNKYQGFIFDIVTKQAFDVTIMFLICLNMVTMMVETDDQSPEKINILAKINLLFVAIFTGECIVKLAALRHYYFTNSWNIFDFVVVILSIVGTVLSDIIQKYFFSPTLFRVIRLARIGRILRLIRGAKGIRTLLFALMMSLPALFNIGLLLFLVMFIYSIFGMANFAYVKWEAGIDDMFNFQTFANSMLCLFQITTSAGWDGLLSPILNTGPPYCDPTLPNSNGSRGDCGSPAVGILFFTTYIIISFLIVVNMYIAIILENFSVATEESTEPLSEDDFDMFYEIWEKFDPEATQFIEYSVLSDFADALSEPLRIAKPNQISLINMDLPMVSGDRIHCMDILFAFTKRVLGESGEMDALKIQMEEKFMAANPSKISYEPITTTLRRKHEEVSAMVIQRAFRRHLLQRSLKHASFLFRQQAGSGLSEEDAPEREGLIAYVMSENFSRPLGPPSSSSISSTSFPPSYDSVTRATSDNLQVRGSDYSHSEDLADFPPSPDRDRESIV
# assay_comment: Late INa screening assay (QPatch whole cell patch clamp, HEK293)
# Format: cell-based
# condition_notes: HEK293, percent block of late INa; compound at 1 μM; 10 μM Tefluthrin; read-out: Late INa 1 μM
measured_property: inhibition at 1 µM (%)
Answers are plain numbers, in %.

Examples from the recorded data:
>  <cpd_smiles>
O=C(NCCN1CCOc2ccc(-c3ccc(OC(F)(F)F)cc3)cc2C1=O)c1ncccn1

>  <study_system>
wild-type human cardiac sodium channel, hNav1.5 (Homo sapiens)

>  <inhibition at 1 µM (%)>
15

$$$$
>  <cpd_smiles>
C[C@H](c1ncccn1)N1CCOc2ccc(-c3ccc(C(F)(F)F)cc3)cc2C1=O

>  <study_system>
wild-type human cardiac sodium channel, hNav1.5 (Homo sapiens)

>  <inhibition at 1 µM (%)>
19

$$$$

I need inhibition at 1 µM for every entry listed below, if you could help.
1. O=C1c2cc(-c3ccc(OC(F)(F)F)cc3)ncc2OCCN1Cc1ncccc1F
2. CC(C)[C@H]1COc2ccc(-c3ccc(C(F)(F)F)cc3)cc2C(=O)N1
3. O=C1c2cc(-c3ccc(OCC(F)(F)F)cc3)ccc2OCCN1Cc1ncccn1
4. Cc1cncc(CN2CCOc3ccc(-c4ccc(OC(F)(F)F)cc4)cc3C2=O)n1

1: 55; 2: 21; 3: 18; 4: 53

Your task in this section: give inhibition at 1 µM for each listed record.
1. CCS(=O)(=O)NCCN1CCOc2ccc(-c3ccc(OC(F)(F)F)cc3)cc2C1=O
2. O=C1c2cc(-c3ccc(C(F)(F)F)s3)ccc2OCCN1Cc1ccccn1
3. O=C1c2cc(-c3ccc(OC(F)(F)F)cc3)ccc2OCCN1Cc1nccc(N2CCCCC2)n1
4. O=C1c2cc(-c3ccc(OC(F)(F)F)cc3)ccc2OCCN1Cc1ncc(Cl)cn1
5. O=C1c2cc(-c3ccc(OC(F)(F)F)cc3)ccc2OCCN1Cc1cc(-c2ccccn2)on1

19
61
31
19
17

For each of the molecules below, state inhibition at 1 µM.
1. O=C1c2cc(-c3ccc(OC(F)(F)F)cc3)ccc2OCCN1Cc1nccn1Cc1ccccc1
2. O=C(c1ncc[nH]1)N1CCOc2ccc(-c3ccc(C(F)(F)F)cc3)cc2C1
3. O=C1c2cc(-c3ccc(OC(F)(F)F)cc3)c(F)cc2OCCN1Cc1ccccc1
4. O=C1c2cc(-c3ccc(OC(F)(F)F)cc3)ccc2OCCN1Cc1cn2ccccc2n1
5. O=C1c2cc(-c3ccc(C(F)(F)F)cc3)ccc2OCCN1Cc1cn2ccccc2n1
6. O=C1c2nc(-c3ccc(OC(F)(F)F)cc3)ccc2OCCN1Cc1ccccc1
7. CCOC(=O)c1cccc(CN2CCOc3ccc(-c4ccc(OC(F)(F)F)cc4)cc3C2=O)c1
8. O=C1c2cc(-c3ccc(OC(F)(F)F)cc3)ccc2OCCN1Cc1cnccn1

1. 62
2. 37
3. 56
4. 53
5. 33
6. 57
7. 23
8. 51

# map each molecule to its inhibition at 1 µM
1. O=C1c2cc(-c3ccc(OC(F)(F)F)cc3)ccc2OCCN1Cc1ccccc1Cl
2. N[C@H]1C[C@H]2COc3ccc(-c4ccc(C(F)(F)F)cc4)cc3C(=O)N2C1

1: 60; 2: 20

Your task in this section: give inhibition at 1 µM for each listed record.
1. O=C1c2cc(-c3ccc(OC(F)(F)F)cc3)cc(F)c2OCCN1Cc1ccccc1
2. O=C1c2cc(-c3ccc(OC(F)(F)F)cc3)ccc2OCCN1CCc1ncccn1
3. O=C1c2cc(-c3ccc(CC(F)(F)F)cc3)ccc2OCCN1Cc1ccccn1
4. CN(c1ccc(OC(F)(F)F)cc1)c1ccc2c(c1)C(=O)N(Cc1ncccn1)CCO2

[56, 39, 51, 22]

List the reported inhibition at 1 µM of each molecule below.
1. O=C1CN(Cc2ccccc2)C(=O)c2cc(-c3ccc(C(F)(F)F)cc3)ccc2N1
2. CCOc1ccc(-c2ccc3c(c2)C(=O)N(Cc2ncccn2)CCO3)cc1
3. O=C1c2cc(-c3ccc(C(F)(F)F)cc3)ccc2OCCN1Cc1ccccc1
4. N#Cc1cccc(CN2CCOc3ccc(-c4ccc(OC(F)(F)F)cc4)cc3C2=O)n1
5. CC(C)(C)OC(=O)N[C@@H]1C[C@@H]2COc3ccc(-c4ccc(C(F)(F)F)cc4)cc3C(=O)N2C1
6. O=C1c2cc(-c3ccc(OC(F)(F)F)cc3)ccc2OCCN1Cc1ccc(F)cc1

50
21
73
47
16
49

Okay, here is my list. What is inhibition at 1 µM for each of these?
1. COc1ccnc(CN2CCOc3ccc(-c4ccc(OC(F)(F)F)cc4)cc3C2=O)n1
2. O=C1c2cc(Nc3ccc(C(F)(F)F)cc3)ccc2OCCN1Cc1ccccn1
3. O=C(C1CC(F)(F)C1)N1CCOc2ccc(-c3ccc(OC(F)(F)F)cc3)cc2C1

54
60
20

Input O=C1c2cc(C#Cc3ccc(OC(F)(F)F)cc3)ccc2OCCN1Cc1ncccn1 . Output inhibition at 1 µM: 61
